# systemName: PARD3_3, Q8TEW0
# Sequence (Q8TEW0 582-685): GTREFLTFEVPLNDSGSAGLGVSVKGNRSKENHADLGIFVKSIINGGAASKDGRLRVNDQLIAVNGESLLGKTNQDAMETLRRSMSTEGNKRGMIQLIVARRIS
# assay: holdup assay
# Design: key: below the threshold = too weak to quantify, mostly under pKd 3.1 to 4
# condition: plain residues with an end cap or a label only (N-terminal biotin on a linker: ado-ado)
In this section we review reported pKd values for a set of binders.
Give the value as a plain number.

Answered cases to consult:
> print(dat)
                        binder  measvalue
1    APIAGFSSFV [SDK2, Q58EX2]       3.56
2   RSSGGDDFWF [KCNV1, Q6PIU1]       4.97
3    QSGLYESEEL [MYOT, Q9UBF9]       3.59
4   GTGYDRKDYV [CLDN3, O15551]       3.52
5   DPAESMESLV [PTPRG, P23470]       3.93
6  QSYPSKHDYV [CLDN18, P56856]       3.69

Query: Name the recorded pKd of the item REEPDHSTEV [CCRL2, O00421] in your answer.
Response: 3.61

Query: Name the recorded pKd of the item EIPAQSPTCV [FZD10, Q9ULW2] in your answer.
Response: 3.65

Query: Name the recorded pKd of the item GIKKITSTAL [RPS6KA3, P51812] in your answer.
Response: 3.51

Query: Name the recorded pKd of the item SLNANEVEWF [RNF130, Q86XS8] in your answer.
Response: 5.28

Query: Name the recorded pKd of the item EDGESWEYQI [TRPV6, Q9H1D0] in your answer.
Response: 5.35

Query: Name the recorded pKd of the item PYSESDDDWC [CACNA1A, O00555] in your answer.
Response: 3.89

Query: Name the recorded pKd of the item KSRVAFFEEL [NF2, P35240] in your answer.
Response: 3.72

Query: Name the recorded pKd of the item ARSAAASNYV [CLDN4, O14493] in your answer.
Response: 3.51
